This collection of values is drawn from PubChem BioAssay (NCATS).

# Test system: DIV17
# assayRemarks: qHTS profiling for inhibitors of Plasmodium falciparum proliferation (AID 504749); also: nearly all actives have a fitted effect of over 60% in size
# experimentalParameters: P. falciparum in erythrocytes, SYBR Green DNA, 72 h; series mostly up to 28.7 µM
# Experimental: NIH National Institute of Allergy and Infectious Diseases [NIAID] NIH Chemical Genomics Center [NCGC] […] Because mature erythrocytes lack DNA, only Plasmodium-derived DNA is detected. NCGC Assay Protocol Summary: The SYBR Green viability assay was adapted from a method described previously (Plouffe et al., 2008). […] The following morning, fluorescence intensity at 485(14) nm excitation and 535(25) nm emission wavelengths was measured on an EnVision (Perkin Elmer) plate reader. […]
Inconclusive results are not listed. Active and inactive are the calls of the source. Calls follow the shape of the dose curve; as a rule, active = well fitted inhibition curve with a large enough effect; inconclusive = small, poorly fitted or top-dose-only effect; inactive = flat fitted curve, though single readings scatter.
Could you please pick one outcome from this set? active, inactive

Known results for compounds:
query: Recorded call for Nc1nc(-c2ccccc2)c(Br)c(=O)[nH]1 ?
result: inactive

query: And then Cc1cc(NS(=O)(=O)c2ccc(N)cc2)nc(C)n1 , what is it?
result: inactive

query: Same read-out for Cc1c(-c2ccccc2)oc2c(C(=O)OCCN3CCCCC3)cccc2c1=O ?
result: inactive

query: Also check Nc1nc(N)c(-c2ccccc2)s1
result: inactive

query: Next: CCCCCCCCCCCCCC[N+](C)(C)Cc1ccccc1
result: active

Next:
query: For this compound, state the assay outcome: CC(C)(C)CC(C)(C)c1ccc(O)c(-n2nc3ccccc3n2)c1
result: active

query: Thanks! And CC(=O)Nc1ccc(OC(=O)c2ccccc2OC(C)=O)cc1 ?
result: inactive

query: Follow-up item: CC(=O)Nc1ccc(S(=O)(=O)Nc2ccc([N+](=O)[O-])cc2)cc1
result: inactive

query: Now the compound CC1CCc2c(N3CCC(O)CC3)c(F)cc3c(=O)c(C(=O)O)cn1c23 (centres undefined)
result: inactive

query: Another: O=C(O)CCNC(=O)c1ccccc1
result: inactive

query: Now this one: O=C(c1ccc(F)cc1)C1CCN(CCn2c(=S)[nH]c3ccccc3c2=O)CC1
result: active

query: Also CCCN(CCc1cccs1)[C@H]1CCc2c(O)cccc2C1 , if possible.
result: active
